- Test: A549 lung cancer cell viability effects, profiling panel, resazurin fluorescence, 24 h, PK04 Diversity Set (AID 1171); also: test concentration not given here
- Condition Set: higher = more signal, called active from +8 up or from −8 down
The source made the active and inactive calls.
Please go through the items and note down their z-score.

Entry "C[C@@H]1ON(c2cccc(C(=O)OC(C)(C)C)c2)[C@H](c2ccc(Br)cc2)[C@H]1C(=O)N1C(=O)OC[C@H]1Cc1ccccc1" has what z-score?
0.319 (inactive)

Entry "C=C(CCCC)/C(=C/C[C@@H](OC(C)=O)c1ccccc1OCCO)c1cnc2ccccc2c1" has what z-score?
-1.21 (inactive)

Entry "CC(=O)NCCCC[C@@H]1NC(=O)[C@@H]2C[C@H](C(=O)NCCCCN(C)C)[C@H](c3cccc(OCCO)c3)N2C1=O" has what z-score?
0.604 (inactive)

Entry COc1ccc(COC2OC[C@]3(C)[C@H]4C5=C(CN3C(=O)OC(C)(C)C)[C@H](C)C(CO)C(CO)C5CC[C@@H]24)cc1 (some centres not stated) has what z-score?
-1.34 (inactive)

Entry "COCCCNC(=O)[C@@]1(Cc2ccccc2N=[N+]=[N-])N=C(c2ccc(OCCCO)cc2)O[C@H]1c1ccccc1N=[N+]=[N-]" has what z-score?
-1.76 (inactive)

Entry CCCCC(O)C1C=CC2C(=O)N(c3ccccc3)C(=O)C2N1Nc1ccccc1F (configuration not stated) has what z-score?
-0.684 (inactive)

Entry "COCCOC(=O)N1C(=O)[C@@]2(c3cc(C#CC4=CCCCC4)ccc31)[C@H](c1ccc(O)cc1)N1[C@H](c3ccccc3)[C@H](c3ccccc3)OC(=O)[C@H]1[C@@H]2C(N)=O" has what z-score?
-0.954 (inactive)

---

- Measurement Target: Torsin-1A (Homo sapiens)
- Test: small-molecule binders of mutant TOR1A in lysate, primary screen, cell lysate, small-molecule microarray, COS7 lysate, 635/667 nm fluorescence (AID 1150);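 also: score pools 667 nm emission and signal to noise measuring lysate protein binding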
- Condition Set: COS7 hTOR1A mutant lysate, 635 nm fluorescence, higher = more signal
Please enter criterion met where composite z-score is greater than or equal to 0.7, and criterion not met where it is lower.

Assess whether reported composite z-score for C=CCC(OC(C)=O)[C@@H]1[C@@H](N(Cc2ccc(-c3cccc(C(F)(F)F)c3)o2)C(=O)c2ccc(-c3ccccc3)cc2)c2cc(OCCCO)ccc2N1C(=O)c1ccc(-c2ccccc2)cc1 (some centres not stated) sits at 0.7 or higher.
criterion not met

Assess whether reported composite z-score for Cc1ccc(C(C)CC(O)C2C=CC3C(=O)N(C)C(=O)C3N2NC(=O)OC(C)(C)C)o1 (configuration not stated) sits at 0.7 or higher.
criterion met

Assess whether reported composite z-score for "O=C(c1ccccc1)N1Cc2ccccc2[C@@H]2OC(c3ccc(OCCCO)cc3)=N[C@]2(Cc2ccccc2)C1=O" sits at 0.7 or higher.
criterion not met

Assess whether reported composite z-score for "COCCOC(=O)N1C(=O)[C@@]2(c3cc(C#Cc4ccc(OC)cc4)ccc31)[C@H](C(N)=O)[C@H]1C(=O)O[C@H](c3ccccc3)[C@H](c3ccccc3)N1[C@@H]2c1ccccc1OCCO" sits at 0.7 or higher.
criterion met

Assess whether reported composite z-score for [N-]=[N+]=NCc1ccccc1C[C@@]1(C(=O)NCC(O)CO)N=C(c2ccc(OCCCO)cc2)O[C@@H]1c1ccccc1N=[N+]=[N-] (some centres not stated) sits at 0.7 or higher.
criterion met

Assess whether reported composite z-score for COc1ccc(C(O)C2C=CC3C(=O)N(C)C(=O)C3N2N2CCCCC2)c2ccccc12 (configuration not stated) sits at 0.7 or higher.
criterion not met

Assess whether reported composite z-score for "C=C(COC)/C(=C/C[C@@H](OC(C)=O)c1ccc(OCCO)cc1)c1cc(C(=O)OC)ccc1OC" sits at 0.7 or higher.
criterion not met

---

- Measurement Target: E3 ubiquitin-protein ligase XIAP (Homo sapiens)
- Test: XIAP binders, primary screen, biophysical, small-molecule microarray, fluorescence 635 nm (AID 1181);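 also: score merges 667 nm emission and signal to noise over triplicate slides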
- Condition Set: small-molecule microarray binding, higher = more signal
Please go through the items and note down their composite z-score.
Reply briefly: the number, and no unit.

Entry "O=C1O[C@H](c2ccccc2)[C@H](c2ccccc2)N2[C@H]1[C@@H](C(=O)O)[C@]1(C(=O)Nc3ccc(C#CCCO)cc31)[C@H]2c1ccc(O)cc1" has what composite z-score?
-0.127

Entry O=C1C2C=CC(C(O)c3ccc(F)cc3)N(Nc3ccccc3F)C2C(=O)N1c1ccccc1 (centres undefined) has what composite z-score?
0.0029

Entry O=C1OCC=C[C@H]2OC34C=CCN(CCN5CCOCC5)C(=O)[C@H]3N(CCCO)C(=O)[C@@H]4[C@@H]12 (some centres undefined) has what composite z-score?
0.0222

Entry "COC(=O)C(CC#Cc1ccc2c(c1)[C@]1(C(=O)N2)[C@H](C(=O)O)[C@H]2C(=O)O[C@H](c3ccccc3)[C@H](c3ccccc3)N2[C@@H]1c1ccc(O)cc1)C(=O)OC" has what composite z-score?
-0.165

---

Please go through the items and note down their z-score.
- Test: fission yeast growth modulation, primary screen, strain 972, OD600, 24 h, no modulator (AID 1090);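 also: basal condition with compound alone and no growth modifier present; test concentration not given here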
- Condition Set: S. pombe 972 growth, higher = more signal, called active from +8 up or from −8 down
The source made the active and inactive calls.

Entry "CCc1oc(CC[C@@H](CO)NC(=O)NCCn2cc(C3(O)CCCCC3)nn2)c(C(=O)OC)c1C(=O)OC" has what z-score?
-0.173 (inactive)

Entry "CN(C)CCCC[C@@H]1NC(=O)[C@H]2C[C@@H](C(=O)NCCCCCNC(=O)CS)[C@@H](c3cccc(OCCO)c3)N2C1=O" has what z-score?
-1.3 (inactive)

Entry O=C1OCCC=C[C@H]2OC34C=CCN(CCN5CCOCC5)C(=O)[C@H]3N(CCCCCCO)C(=O)[C@@H]4C12 (stereo partly drawn) has what z-score?
-1 (inactive)

Entry "O=C1O[C@@H](c2ccccc2)[C@@H](c2ccccc2)N2[C@@H](c3ccccc3OCCO)[C@]3(C(=O)Nc4ccc(C#CC5=CCCCC5)cc43)[C@@H](C(=O)Nc3nc4ccccc4s3)[C@H]12" has what z-score?
1.8 (inactive)

Entry O=C1OCCC/C=C\[C@H]2OC34C=CCN(CCN5CCOCC5)C(=O)[C@H]3N(CCCO)C(=O)[C@@H]4C12 (stereo partly drawn) has what z-score?
-0.632 (inactive)

Entry "C=C(COC)/C(=C/C[C@@H](OC(C)=O)c1ccc(CO)o1)c1cnc2ccccc2c1" has what z-score?
-0.721 (inactive)

Entry "O=C1C[C@]2(c3ccc([N+](=O)[O-])cc3)C(=O)N(CCN3CCOCC3)c3cc(CO)ccc3[C@H]2N1C1CCCCC1" has what z-score?
0.0365 (inactive)

Entry "COCCOC(=O)N1C(=O)[C@@]2(c3cc(C#CC4=CCCCC4)ccc31)[C@H](C(N)=O)[C@H]1C(=O)O[C@H](c3ccccc3)[C@H](c3ccccc3)N1[C@@H]2c1ccc(OCCO)cc1" has what z-score?
1.28 (inactive)

Entry "[N-]=[N+]=NCc1ccccc1C[C@]1(C(=O)O)N=C(c2ccc(OCCCO)cc2)O[C@H]1c1ccccc1N=[N+]=[N-]" has what z-score?
-0.742 (inactive)

Entry "CC(C)C[C@@H]1NC(=O)[C@@H]2C[C@H](C(=O)NCCCCCN)[C@H](c3cccc(OCCO)c3)N2C1=O" has what z-score?
-0.894 (inactive)

Entry O=C1OCC=C[C@H]2OC34C=CCN(c5ccc6ccccc6c5)C(=O)[C@H]3N(CCCCCCO)C(=O)[C@@H]4[C@@H]12 (stereo partly drawn) has what z-score?
-0.715 (inactive)

Entry "C=CCOC(=O)[C@H]1[C@@H]2C(=O)O[C@@H](c3ccccc3)[C@@H](c3ccccc3)N2[C@@H](c2ccc(OCCOC(=O)[C@H]3C[C@H]4C(=O)N[C@@H](CC(C)C)C(=O)N4[C@H]3c3ccc(O)cc3)cc2)[C@]12C(=O)Nc1ccc(I)cc12" has what z-score?
-1.4 (inactive)

Entry "COCCOC(=O)N1C(=O)[C@@]2(c3cc(C#CC4=CCCCC4)ccc31)[C@H](C(=O)N1CCc3cc(OC)c(OC)cc3C1)[C@H]1C(=O)O[C@H](c3ccccc3)[C@H](c3ccccc3)N1[C@@H]2c1ccc(OCCO)cc1" has what z-score?
0.713 (inactive)

---

- Test: S. cerevisiae RM11-1a growth modifiers, primary screen, strain RM11-1a, OD600, basal, 24 h (AID 1177);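 also: cultures grown under basal conditions with no added stressor; test concentration not given here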
- Condition Set: OD600, 24 h, higher = more signal, called active from +8 up or from −8 down
Please go through the items and note down their z-score.
Reply briefly: the number, and no unit.

Entry "Cc1ccc(S[C@]2(C(=O)NCCN3CCOCC3)CC(=O)N(Cc3ccccc3Cl)[C@@H]2c2ccc(CO)cc2)cc1" has what z-score?
0.381

Entry "O=C1[C@H]2C=C(Br)[C@H](C[C@@H]2OCCCCO)[C@@]12CO2" has what z-score?
0.614

Entry "O=C1O[C@H](c2ccccc2)[C@H](c2ccccc2)N2[C@H]1[C@@H](C(=O)O)[C@]1(C(=O)Nc3ccc(C#CCCO)cc31)[C@H]2c1ccc(O)cc1" has what z-score?
0.0737

Entry O=C1OCCC/C=C\[C@H]2OC34C=CCN(Cc5ccccc5)C(=O)[C@H]3N(CCCCCCO)C(=O)[C@@H]4C12 (some centres undefined) has what z-score?
0.692

Entry "NCCCCCNC(=O)[C@@H]1C[C@@H]2C(=O)N[C@@H](Cc3ccccc3)C(=O)N2[C@@H]1c1cccc(OCCO)c1" has what z-score?
0.606

Entry "C=CCNC(=O)[C@H]1[C@@H]2C(=O)O[C@@H](c3ccccc3)[C@@H](c3ccccc3)N2[C@@H](c2ccc(OCCO)cc2)[C@]12C(=O)Nc1ccc(C#CC3=CCCCC3)cc12" has what z-score?
2.97

Entry "O=C(O)[C@@]1(CCS(=O)(=O)c2ccccc2)COC(c2ccc(OCCCO)cc2)=N1" has what z-score?
-0.197

Entry "COc1ccc([C@H]2C[C@H]3C(Br)=C[C@@H]2C(=O)[C@]32CO2)cc1" has what z-score?
0.844

Entry "CCOC(=O)C[C@H]1[C@H](OC(=O)c2cc3ccccc3oc2=O)[C@@H](NC(=O)Cc2ccc(OC)cc2)c2cc(OCCCO)ccc2N1C(=O)c1ccccc1" has what z-score?
0.0296

Entry "CN(C)C(=O)[C@]1(Cc2ccccc2CN=[N+]=[N-])N=C(c2ccc(OCCCO)cc2)O[C@@H]1c1ccccc1CN=[N+]=[N-]" has what z-score?
-0.111

Entry "CN1C(=O)[C@]2(Cc3ccccc3)N=C(c3ccc(OCCCO)cc3)O[C@@H]2c2ccccc21" has what z-score?
1.13

Entry "O=C1[C@H]2C=C(Br)[C@H](C[C@@H]2c2ccccc2)[C@@]12CO2" has what z-score?
-0.13

Entry Cc1ccc(C(C)CC(O)C2C=CC3C(=O)N(c4ccccc4)C(=O)C3N2Nc2ccc([N+](=O)[O-])cc2)o1 (centres undefined) has what z-score?
0.315

Entry "COC(=O)[C@@]1(Cc2ccc(OC)cc2)[C@H]2c3cc(C(=O)N(C)C)n(Cc4cccc5ccccc45)c3C[C@H]2CN1C(=O)c1ccccc1" has what z-score?
0.872

Entry "C=CC[C@@]1(C(=O)NCc2ccccc2)N=C(c2ccc(OCCCO)cc2)O[C@@H]1c1ccccc1N=[N+]=[N-]" has what z-score?
2.07

Entry CN1C(=O)C2C=CC(C(O)c3cccs3)N(Nc3ccccc3)C2C1=O (centres undefined) has what z-score?
-0.0337

Entry "COC(=O)[C@@]1(Cc2ccc(F)cc2)[C@H]2c3cc(C(=O)N4CCCC4)n(Cc4cc(C)n(C)n4)c3C[C@H]2CN1C(=O)c1ccccc1" has what z-score?
0.279

Entry CC1CC/C=C\[C@H]2OC34C=CCN(Cn5nnc6ccccc65)C(=O)[C@H]3N(C(CO)C(C)C)C(=O)[C@@H]4C2C(=O)O1 (some centres undefined) has what z-score?
-0.271

Entry "C[N+](C)(C)CCCCNC(=O)[C@H]1C[C@H]2C(=O)N[C@@H](Cc3ccccc3)C(=O)N2[C@H]1c1ccc(O)cc1" has what z-score?
0.644

Entry "O=C1O[C@H](c2ccccc2)[C@H](c2ccccc2)N2[C@H]1[C@@H](C(=O)Nc1nc3ccccc3s1)[C@]1(C(=O)Nc3ccc(C#CCCO)cc31)[C@H]2c1ccc(OCCO)cc1" has what z-score?
1.67

Entry CC(C)C(CO)N1C(=O)[C@@H]2[C@H]3C(=O)OCC=C[C@H]3OC23C=CCN(C(C)C)C(=O)[C@@H]13 (some centres undefined) has what z-score?
0.73

Entry COCCCNC(=O)C1N=C(c2ccc(OCCCO)cc2)N(c2ccccc2)O1 (centres undefined) has what z-score?
0.254

Entry COc1ccc(C(O)C2C=CC3C(=O)NC(=O)C3N2Nc2ccccn2)c2ccccc12 (centres undefined) has what z-score?
0.75

Entry "COCCOC(=O)N1C(=O)[C@@]2(c3cc(C#Cc4ccc(OC)cc4)ccc31)[C@H](C(N)=O)[C@H]1C(=O)O[C@H](c3ccccc3)[C@H](c3ccccc3)N1[C@@H]2c1ccccc1OCCO" has what z-score?
1.5

Entry "CCc1oc(CC[C@@H](CO)NC(=O)NCCn2cc(C3(O)CCCCC3)nn2)c(C(=O)OC)c1C(=O)OC" has what z-score?
-0.298

Entry "[N-]=[N+]=NCc1ccccc1[C@@H]1OC(c2ccc(OCCCO)cc2)=N[C@]1(CCS(=O)(=O)c1ccccc1)C(=O)NCc1ccccc1" has what z-score?
0.797

Entry CCOC1=C2C(CN(S(=O)(=O)c3ccc(C)cc3)C2c2ccc(C)cc2)C2C(=O)N(c3ccccc3)C(=O)C2C1 (centres undefined) has what z-score?
0.413

Entry N#Cc1ccc(NN2C(C(O)c3c(F)cccc3Cl)C=CC3C(=O)N(c4ccccc4)C(=O)C32)cc1 (centres undefined) has what z-score?
-0.0762

Entry "NC(=O)[C@@H]1[C@H]2C(=O)O[C@H](c3ccccc3)[C@H](c3ccccc3)N2[C@H](c2ccc(O)cc2)[C@@]12C(=O)Nc1ccc(C#CC3(O)CCCCCC3)cc12" has what z-score?
0.591
